In this section, each of the compounds is paired with its reported pIC50.
target.system: mutant HIV reverse transcriptase with the K103N mutation (Human immunodeficiency virus type 1 group M subtype B, UniProt P04585, K690N)
Construct: mutations that occur in the reverse transcriptase segment of the pol gene; made in house
measurement.notes: Analogous RT inhibition assay, K103N mutant
Assay type: biochemical
pIC50: −log10 of the molar value.
reported.property: pIC50

NC(=O)c1[nH]c2ccc(Br)cc2c1S(=O)(=O)N1CCCC(F)(F)C1 [Example 21] :: < 4.70
NC(=O)c1[nH]c2ccc(Cl)cc2c1S(=O)(=O)N1CCCC1 [Example 6] :: 4.70 to 6.00
NC(=O)c1[nH]c2ccc(Br)cc2c1S(=O)(=O)NC1CC1 [Example 11] :: < 4.70
O=C(NCc1c(F)cccc1Cl)c1[nH]c2ccc(Br)cc2c1S(=O)(=O)N1CCCC1 [Example 48] :: > 6.00
NC(=O)c1[nH]c2ccc(Br)cc2c1S(=O)(=O)N1CC=CC1 [Example 10] :: > 6.00
NC(=O)c1[nH]c2ccc(Cl)cc2c1S(=O)(=O)N1CC=CC1 [Example 37] :: 4.70 to 6.00
O=C(NCc1ccccc1O)c1[nH]c2ccc(Br)cc2c1S(=O)(=O)N1CCCC1 [Example 51] :: > 6.00
O=C(NCCO)c1[nH]c2ccc(Br)cc2c1S(=O)(=O)N1CCCC1 [Example 32] :: 4.70 to 6.00
O=C(NCc1ccn[nH]1)c1[nH]c2ccc(Br)cc2c1S(=O)(=O)N1CCCC1 [Example 59] :: > 6.00
O=C(NCc1ccccc1OC(F)F)c1[nH]c2ccc(Br)cc2c1S(=O)(=O)N1CCCC1 [Example 53] :: > 6.00
O=C(NCCO)c1[nH]c2ccc(Br)cc2c1S(=O)(=O)N1CCCCC1 [Example 31] :: < 4.70
NC(=O)c1[nH]c2ccc(Br)cc2c1S(=O)(=O)NCCS(N)(=O)=O [Example 9] :: 4.70 to 6.00
NC(=O)c1[nH]c2ccc(Cl)cc2c1S(=O)(=O)NC1CCCCC1 [Example 2] :: < 4.70
O=C(NCc1ccncc1)c1[nH]c2ccc(Br)cc2c1S(=O)(=O)N1CCCC1 [Example 64] :: > 6.00
O=C(NCc1cncs1)c1[nH]c2ccc(Br)cc2c1S(=O)(=O)N1CCCC1 [Example 65] :: > 6.00
NC(=O)c1[nH]c2ccc(Cl)cc2c1S(=O)(=O)N1CCCCC1 [Example 5] :: < 4.70
CON(C)S(=O)(=O)c1c(C(N)=O)[nH]c2ccc(Br)cc12 [Example 12] :: < 4.70
NC(=O)c1[nH]c2ccc(Cl)cc2c1S(=O)(=O)NC1CCCC1 [Example 4] :: < 4.70
CN(C1CC1)S(=O)(=O)c1c(C(N)=O)[nH]c2ccc(Br)cc12 [Example 8] :: < 4.70
NC(=O)c1[nH]c2ccc(Cl)cc2c1S(=O)(=O)N1CCC(F)C1 (centres unmarked) [Example 38] :: 4.70 to 6.00

====

IC50 values for the molecules below.
target.system: mutant HIV reverse transcriptase with the Y181C mutation (Human immunodeficiency virus type 1 group M subtype B, UniProt P04585, Y768C)
Construct: mutations that occur in the reverse transcriptase segment of the pol gene; made in house
measurement.notes: Analogous RT inhibition assay, Y181C mutant
Assay type: biochemical
reported.property: IC50

O=C(NCc1c(F)cccc1Cl)c1[nH]c2ccc(Br)cc2c1S(=O)(=O)N1CCCC1 :: < 1000 nM
NC(=O)c1[nH]c2ccc(Br)cc2c1S(=O)(=O)N1CCCC(F)(F)C1 :: < 1000 nM
NC(=O)c1[nH]c2ccc(Br)cc2c1S(=O)(=O)NC1CC1 :: 1000 to 20000 nM
NC(=O)c1[nH]c2ccc(Br)cc2c1S(=O)(=O)N1CCC[C@H]1C(F)(F)F :: 1000 to 20000 nM
O=C(NCc1ccncc1)c1[nH]c2ccc(Br)cc2c1S(=O)(=O)N1CCCC1 :: < 1000 nM
